target: BRAF^V600E (Homo sapiens, UniProt P15056, V600E); assay: BRAF V600E enzymatic activity, FRET-based Z'-Lyte kinase assay
Sequence (P15056 whole entry V600E): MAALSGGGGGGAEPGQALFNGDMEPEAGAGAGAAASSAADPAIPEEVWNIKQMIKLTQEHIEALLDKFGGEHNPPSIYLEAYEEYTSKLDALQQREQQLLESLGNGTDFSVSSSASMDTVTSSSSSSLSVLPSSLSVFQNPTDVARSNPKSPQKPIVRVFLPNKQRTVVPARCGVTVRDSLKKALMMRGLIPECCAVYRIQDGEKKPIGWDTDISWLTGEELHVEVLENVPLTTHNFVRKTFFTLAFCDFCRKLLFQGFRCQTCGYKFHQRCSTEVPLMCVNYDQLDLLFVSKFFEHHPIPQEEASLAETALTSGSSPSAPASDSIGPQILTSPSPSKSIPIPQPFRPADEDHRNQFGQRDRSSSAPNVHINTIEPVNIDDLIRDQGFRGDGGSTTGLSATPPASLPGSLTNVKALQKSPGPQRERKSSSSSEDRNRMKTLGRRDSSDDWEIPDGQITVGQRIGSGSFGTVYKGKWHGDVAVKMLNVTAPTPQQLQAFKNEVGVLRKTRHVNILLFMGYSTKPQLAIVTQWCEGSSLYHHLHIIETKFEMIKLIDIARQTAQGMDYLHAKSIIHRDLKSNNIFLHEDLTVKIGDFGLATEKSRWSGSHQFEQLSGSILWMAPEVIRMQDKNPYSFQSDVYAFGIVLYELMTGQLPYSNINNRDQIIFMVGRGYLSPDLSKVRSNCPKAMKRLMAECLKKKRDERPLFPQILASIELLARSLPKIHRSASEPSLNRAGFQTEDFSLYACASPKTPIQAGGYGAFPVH
Task for the reader: assign each of the following molecules its reported pIC50.
FYI, pIC50 means -log10 of a concentration in mol per litre.

Could you share which pIC50 value was measured for CC(C)c1nc(-c2cccc(NS(=O)(=O)c3c(F)cccc3F)c2F)c(-c2ccnc(NCCCCCCC(=O)NO)n2)s1 [14g] ? 8.82

Entry Cc1nc(-c2cccc(NS(=O)(=O)c3c(F)cccc3F)c2F)c(-c2ccnc(NCCCCCCC(=O)NO)n2)s1 [14e] please 8.46

Again, but for CC(C)(C)c1nc(-c2cccc(NS(C)(=O)=O)c2F)c(-c2ccnc(NCCCCCCC(=O)NO)n2)s1 [21a] 8.99

Similarly, CC(C)(C)c1nc(-c2cccc(NS(=O)(=O)c3c(F)cccc3F)c2F)c(-c2ccnc(NCCCCCCCC(=O)NO)n2)s1 [14c] ? 8.64
